assay: in vivo; format: in vivo, SD rats; settings: SD, rat, in vivo, iv; rats, i.v. 45 mg/kg, 30 min after administration, average; read-out: Drug concentrations in brain tissue
PARAMETER: concentration at 30 min
Could you kindly put the unit after your number?

[[record]]
compound = "CCCc1cc(-c2cc(C(C)C)c(O)c(C(C)C)c2)cc(CCC)c1O [Compound 1]"
experimental_value = "38100 ng/g"


API: the following record is the query input.
concentration at 30 min lookup needed for CC(C)c1cc(-c2cc(C(C)C)c(O)c(C(C)C)c2)cc(C(C)C)c1O [Dipropofol, reference compound] , thanks. 32500 ng/g

* * *

experiment: in vivo; format: in vivo, SD rats; conditions: SD, rat, in vivo, iv; rats, i.v. 45 mg/kg, 2 h after administration, average; read-out: Drug concentrations in brain tissue
PARAMETER: concentration at 2 h (ng/g)
Numbers only, in ng/g.

[[record]]
molecule = "CCCc1cc(-c2cc(C(C)C)c(O)c(C(C)C)c2)cc(CCC)c1O [Compound 1]"
experimental_value = 24600


Now let's try a different one.
Please report the recorded concentration at 2 h for CC(C)c1cc(-c2cc(C(C)C)c(O)c(C(C)C)c2)cc(C(C)C)c1O [Dipropofol, reference compound] . 17900

* * *

experiment: in vivo; assay type: in vivo, SD rats; conditions: SD, rat, in vivo, iv; rats, i.v. 45 mg/kg, 1 h after administration, average; read-out: Drug concentrations in brain tissue
PARAMETER: concentration at 1 h (ng/g)
Give bare numbers, in ng/g.

[[record]]
compound = "CCCc1cc(-c2cc(C(C)C)c(O)c(C(C)C)c2)cc(CCC)c1O"
experimental_value = 33900


Now let's try a different one.
Name the reported concentration at 1 h value associated with the compound CC(C)c1cc(-c2cc(C(C)C)c(O)c(C(C)C)c2)cc(C(C)C)c1O [Dipropofol, reference compound] 26600

* * *

Hi there, I'd appreciate the recorded IC50 for every entry that follows.
molecular target: GABAA, Chloride Channel, TBPS; assay: Radioligand ([35S]TBPS)-receptor competitive binding assay for GABAA receptor; conditions: [35S]TBPS; test concentration 30, 10, 3, 1, 0.3 uM
One number for each entry, in nM.

Each compound below has a reported value. Please supply its IC50.
1. CCCc1cc(-c2cc(C(C)C)c(O)c(C(C)C)c2)cc(CCC)c1O [Compound 1]
2. CCCc1cc(-c2cc(C(C)C)c(O)c(C(C)C)c2)cc(C(C)C)c1O [Compound 2]
3. CCCc1cc(-c2cc(CCC)c(O)c(C(C)C)c2)cc(CCC)c1O [Compound 3]
4. CC(C)c1cc(-c2cc(C(C)C)c(O)c(C(C)C)c2)cc(C(C)C)c1O [Dipropofol, reference compound]

1. 1820
2. 2110
3. 2690
4. 2060

* * *

assay: in vivo; assay type: in vivo, SD rats; settings: SD, rat, in vivo, iv; rats, i.v. 45 mg/kg, 15 min after administration, average; read-out: Drug concentrations in brain tissue
Hi there, I'd appreciate the recorded concentration at 15 min for every entry that follows.
One number for each entry, in ng/g.

[[record]]
compound = "CCCc1cc(-c2cc(C(C)C)c(O)c(C(C)C)c2)cc(CCC)c1O [Compound 1]"
experimental_value = 39600


Next up:
Reported concentration at 15 min, compound CC(C)c1cc(-c2cc(C(C)C)c(O)c(C(C)C)c2)cc(C(C)C)c1O [Dipropofol, reference compound] : ____ 24100
